Taken from the supplement of paper PMC10307832.

Record form. Attribute: relative viability. Fill in for each entry.
System: Calu-6
Procedure details: relative viability (nuclei count vs DMSO), 5 days (fraction); higher = more cells survive
Settings: first compound 0.08 µM

Solved entries:
Oc1nc(-c2ccc(C(F)(F)F)cc2)nc2c1CSCC2 [XAV939] + C[C@@H](Oc1cc(-c2cnn(C3CCNCC3)c2)cnc1N)c1c(Cl)ccc(F)c1Cl [Crizotinib] (partner 1 µM) ... 0.822
Oc1nc(-c2ccc(C(F)(F)F)cc2)nc2c1CSCC2 [XAV939] + CS(=O)(=O)CCNCc1ccc(-c2ccc3ncnc(Nc4ccc(OCc5cccc(F)c5)c(Cl)c4)c3c2)o1 [Lapatinib] (partner 2 µM) ... 1.08
C=C1C(=O)O[C@@H](CCCCCCCC)[C@@H]1C(=O)O [C-75] + C[C@]1(O)C[C@@H](c2nc(-c3ccc4ccc(-c5ccccc5)nc4c3)c3c(N)nccn32)C1 [Linsitinib] (partner 1 µM) ... 0.902

List relative viability for every entry below, keeping the order given.
1. Oc1nc(-c2ccc(C(F)(F)F)cc2)nc2c1CSCC2 [XAV939] + CS(=O)(=O)N1CCN(Cc2cc3nc(-c4cccc5[nH]ncc45)nc(N4CCOCC4)c3s2)CC1 [Pictilisib] (partner 1 µM)
2. Oc1nc(-c2ccc(C(F)(F)F)cc2)nc2c1CSCC2 [XAV939] + COc1cc2c(Oc3ccc(NC(=O)C4(C(=O)Nc5ccc(F)cc5)CC4)cc3F)ccnc2cc1OCCCN1CCOCC1 [Foretinib] (partner 0.25 µM)
3. C=C1C(=O)O[C@@H](CCCCCCCC)[C@@H]1C(=O)O [C-75] + CS(=O)(=O)N1CCN(Cc2cc3nc(-c4cccc5[nH]ncc45)nc(N4CCOCC4)c3s2)CC1 [Pictilisib] (partner 1 µM)

# output
1.09
0.88
0.985
